# System: C4-2AR-F876L cells, AR(+)
# Test description: CRPC cell proliferation assay (CellTiter-Glo), C4-2AR-F876L
# Format: cell-based
# Measurement conditions: CTG at 96h
Reported metric: pIC50
Answer as the number alone; pIC50 is minus log10 of concentration in mol/L.

Compound	Reported metric	Recorded number
COc1cc2c(cc1-c1c(C)noc1C)ncc1[nH]c(=O)n([C@H](C)c3ccccn3)c12 [i-BET151, reference compound]	pIC50	6.33

Lab note: next compound to report on.
pIC50 reading for CCC(=O)N(C)c1ccc2nc(NCCC(=O)O)c(=O)n([C@@H](CC)c3ccccc3)c2n1 [Example 10] : 6.25
